- Measurement target: CDK9/Cyclin T1 complex (Homo sapiens, UniProt P50750)
- Sequence (P50750 whole entry): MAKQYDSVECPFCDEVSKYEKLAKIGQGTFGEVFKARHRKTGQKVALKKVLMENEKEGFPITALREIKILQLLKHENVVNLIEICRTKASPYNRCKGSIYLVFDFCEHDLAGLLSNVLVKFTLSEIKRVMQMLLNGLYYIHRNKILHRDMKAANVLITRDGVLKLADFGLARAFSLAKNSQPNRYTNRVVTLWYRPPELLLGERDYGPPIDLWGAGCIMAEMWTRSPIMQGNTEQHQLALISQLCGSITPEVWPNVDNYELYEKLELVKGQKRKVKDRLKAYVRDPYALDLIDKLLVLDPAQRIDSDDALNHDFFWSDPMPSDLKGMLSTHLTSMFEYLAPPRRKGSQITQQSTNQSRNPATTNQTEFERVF
- Sequence (O60563 whole entry partner): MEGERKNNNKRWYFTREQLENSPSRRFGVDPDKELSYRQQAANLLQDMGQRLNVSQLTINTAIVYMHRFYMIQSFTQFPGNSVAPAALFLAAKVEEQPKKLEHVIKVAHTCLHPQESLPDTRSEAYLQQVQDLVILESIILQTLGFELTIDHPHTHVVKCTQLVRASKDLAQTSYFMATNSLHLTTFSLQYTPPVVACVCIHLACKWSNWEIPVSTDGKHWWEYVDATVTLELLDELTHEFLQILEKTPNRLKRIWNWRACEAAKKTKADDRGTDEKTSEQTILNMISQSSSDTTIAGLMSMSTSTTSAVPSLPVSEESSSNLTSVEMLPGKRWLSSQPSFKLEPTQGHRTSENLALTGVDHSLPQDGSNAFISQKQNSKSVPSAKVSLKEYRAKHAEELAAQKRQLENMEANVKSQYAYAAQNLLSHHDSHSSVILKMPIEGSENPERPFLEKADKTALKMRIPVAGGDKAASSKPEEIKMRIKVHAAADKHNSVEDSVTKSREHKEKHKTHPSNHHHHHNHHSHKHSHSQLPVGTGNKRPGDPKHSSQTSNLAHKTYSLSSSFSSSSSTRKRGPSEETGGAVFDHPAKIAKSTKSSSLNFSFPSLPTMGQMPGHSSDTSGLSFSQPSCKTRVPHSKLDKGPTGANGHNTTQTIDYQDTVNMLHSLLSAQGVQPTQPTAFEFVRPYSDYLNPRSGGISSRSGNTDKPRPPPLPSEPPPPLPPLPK
- Measurement protocol: CDK9 kinase inhibition assay (Caliper/LabChip EZ Reader)
- Protocol conditions: read-out: CDK9 IC50; CDK9/Cyclin T1 8 nM, ATP 2 mM, 15 min at 27° C.
Endpoint label: IC50

Query: Looking for the measured IC50 of Cc1noc(C)c1-c1ccc2c(-c3nc(N[C@@H]4CN(C(=O)OC(C)(C)C)CC[C@@H]4C)ncc3C(F)(F)F)cn(S(=O)(=O)c3ccccc3)c2n1 (single isomer, unassigned) , can you help?
Reply: > 500 nM

###

- Tested on: COV318 cells
- Measurement protocol: Inhibition of cell proliferation (CyQUANT Direct), COV318
- Format: cell-based, human
- Protocol conditions: Homo sapiens, COV318, 72-hour
# reported IC50; entries follow

Completed entries (count: 8):
- Cc1nc(-c2ccc3c(-c4nc(N[C@H]5CCCNC5)ncc4C(F)(F)F)n[nH]c3n2)no1 [Compound 168]: < 100 nM
- FC(F)(F)c1cnc(N[C@H]2CCCNC2)nc1-c1c[nH]c2cc(-c3ncco3)ccc12 [Compound 110]: 100 to 500 nM
- CNC(=O)[C@H]1CNC[C@@H](Nc2ncc(C(F)(F)F)c(-c3c[nH]c4nc(-c5nccs5)ccc34)n2)C1 [Compound 145]: > 1000 nM
- Cc1nc(-c2ccc3c(-c4nc(N[C@H]5CC[C@H](C)NC5)ncc4C(F)(F)F)n[nH]c3n2)no1 [Compound 167]: 100 to 500 nM
- Cc1noc(C)c1-c1ccc2c(-c3nc(N[C@@H]4CNC[C@H](O)C4)ncc3C(F)(F)F)c[nH]c2n1 [Compound 133]: 100 to 500 nM
- Cc1ncoc1-c1ccc2c(-c3nc(N[C@H]4CCCNC4)ncc3C(F)(F)F)c[nH]c2n1 [Compound 161]: 100 to 500 nM
- CNC(=O)[C@H]1CNC[C@@H](Nc2ncc(C(F)(F)F)c(-c3c[nH]c4cc(-c5c(C)noc5C)ccc34)n2)C1 [Compound 113]: > 1000 nM
- Cc1nnc(-c2ccc3c(-c4nc(N[C@H]5CCCNC5)ncc4C(F)(F)F)c[nH]c3n2)s1 [Compound 155]: < 100 nM

Query: Would you mind telling me what IC50 value was observed for Cc1nnc(C)n1-c1ccc2c(-c3nc(N[C@H]4CCCNC4)ncc3C(F)(F)F)c[nH]c2n1 [Compound 140] ?
Reply: > 1000 nM

Query: Same again, this time with Cc1nnc(-c2ccc3c(-c4nc(N[C@@H]5CC[C@@H](C)NC5)ncc4C(F)(F)F)c[nH]c3n2)s1 [Compound 158]
Reply: 100 to 500 nM

Query: Next molecule up: Cc1noc(C)c1-c1ccc2c(-c3nc(N[C@@H]4CNC[C@H](O)C4)ncc3C(F)(F)F)n[nH]c2n1 [Compound 146]
Reply: > 1000 nM

Query: // repeat for CO[C@H]1CNC[C@@H](Nc2ncc(C(F)(F)F)c(-c3c[nH]c4cc(-c5c(C)noc5C)ccc34)n2)C1 [Compound 131] and report
Reply: 100 to 500 nM

Query: What do you have for Cc1nocc1-c1ccc2c(-c3nc(N[C@H]4CCCNC4)ncc3C(F)(F)F)c[nH]c2c1 [Compound 114] ?
Reply: < 100 nM

Query: Follow-up entry: CC1(C)CNC[C@@H](Nc2ncc(C(F)(F)F)c(-c3c[nH]c4cc(-c5nccs5)ccc34)n2)C1 [Compound 109]
Reply: < 100 nM

Query: Consider next the molecule Cc1nocc1-c1ccc2c(-c3nc(N[C@@H]4CC[C@@H](C)NC4)ncc3C(F)(F)F)c[nH]c2n1 [Compound 157] in the same way.
Reply: < 100 nM

Query: Can you handle Cc1noc(C)c1-c1ccc2c(-c3nc(N[C@H]4CCCNC4)ncc3C(F)(F)F)c[nH]c2n1 [Compound 101] next?
Reply: < 100 nM

Query: Queued: FC(F)(F)c1cnc(N[C@H]2CCCNC2)nc1-c1n[nH]c2cc(-c3nccs3)ccc12 [Compound 103]
Reply: 100 to 500 nM

Query: Next: Cn1nncc1-c1ccc2c(-c3nc(N[C@H]4CCCNC4)ncc3C(F)(F)F)c[nH]c2c1 [Compound 126]
Reply: 100 to 500 nM

Query: And Cc1nc(-c2ccc3c(-c4nc(N[C@H]5CC[C@H](C)NC5)ncc4C(F)(F)F)c[nH]c3n2)no1 [Compound 162] ?
Reply: > 1000 nM

Query: Also C[C@H]1CC[C@H](Nc2ncc(C(F)(F)F)c(-c3c[nH]c4nc(-c5nnnn5C)ccc34)n2)CN1 [Compound 165] , if possible.
Reply: > 1000 nM

Query: One more molecule: FC(F)(F)c1cnc(N[C@H]2CCCNC2)nc1-c1c[nH]c2cc(-c3cnco3)ccc12 [Compound 111]
Reply: 100 to 500 nM

Query: Consider next the molecule Cc1nnc(-c2ccc3c(-c4nc(N[C@H]5CCCNC5)ncc4C(F)(F)F)c[nH]c3c2)s1 [Compound 123] in the same way.
Reply: 100 to 500 nM

Query: Next entry: Cc1nsc(-c2ccc3c(-c4nc(N[C@H]5CCCNC5)ncc4C(F)(F)F)c[nH]c3n2)n1 [Compound 142]
Reply: 500 to 1000 nM

Query: Would you kindly repeat that for CC1(C)CNC[C@@H](Nc2ncc(C(F)(F)F)c(-c3c[nH]c4nc(-c5nccs5)ccc34)n2)C1 [Compound 137] ?
Reply: < 100 nM

Query: Proceed to Cc1nc(-c2ccc3c(-c4nc(N[C@H]5CCCNC5)ncc4C(F)(F)F)c[nH]c3c2)no1 [Compound 129]
Reply: < 100 nM

Query: Queued: Cc1nscc1-c1ccc2c(-c3nc(N[C@H]4CCCNC4)ncc3C(F)(F)F)c[nH]c2c1 [Compound 128]
Reply: 100 to 500 nM

###

- Measurement target: CDK7/Cyclin H/MAT1 complex (Homo sapiens)
- Sequence (P50613 whole entry): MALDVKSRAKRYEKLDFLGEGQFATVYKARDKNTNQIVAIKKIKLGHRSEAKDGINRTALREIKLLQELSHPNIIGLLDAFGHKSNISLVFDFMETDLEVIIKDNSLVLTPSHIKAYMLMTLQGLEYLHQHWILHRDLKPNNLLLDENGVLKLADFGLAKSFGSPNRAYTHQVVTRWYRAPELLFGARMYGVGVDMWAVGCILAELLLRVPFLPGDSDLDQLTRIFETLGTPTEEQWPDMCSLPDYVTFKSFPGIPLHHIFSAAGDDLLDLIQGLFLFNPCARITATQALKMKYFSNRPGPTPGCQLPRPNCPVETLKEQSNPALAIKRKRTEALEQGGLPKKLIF
- Sequence (P51946 whole entry partner): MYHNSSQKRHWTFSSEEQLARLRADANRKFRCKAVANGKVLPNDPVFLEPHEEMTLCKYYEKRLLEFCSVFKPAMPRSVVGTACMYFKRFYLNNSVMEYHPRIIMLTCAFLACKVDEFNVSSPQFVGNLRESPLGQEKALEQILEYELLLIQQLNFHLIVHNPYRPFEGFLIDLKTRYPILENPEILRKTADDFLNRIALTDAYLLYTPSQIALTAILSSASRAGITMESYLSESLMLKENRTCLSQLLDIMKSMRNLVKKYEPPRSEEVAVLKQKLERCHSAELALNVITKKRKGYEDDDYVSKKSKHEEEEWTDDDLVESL
- Sequence (P51948 whole entry partner): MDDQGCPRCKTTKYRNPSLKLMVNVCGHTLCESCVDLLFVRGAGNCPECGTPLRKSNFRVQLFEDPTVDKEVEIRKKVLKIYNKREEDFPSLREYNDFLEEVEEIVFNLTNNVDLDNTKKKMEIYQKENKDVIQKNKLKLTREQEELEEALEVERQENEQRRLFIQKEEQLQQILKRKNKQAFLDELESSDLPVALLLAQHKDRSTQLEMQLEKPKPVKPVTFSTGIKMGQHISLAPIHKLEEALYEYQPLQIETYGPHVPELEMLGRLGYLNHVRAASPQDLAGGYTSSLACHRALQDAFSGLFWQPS
- Measurement protocol: CDK7 kinase inhibition assay (Caliper/LabChip EZ Reader)
Endpoint label: IC50

• Cc1nsc(-c2ccc3c(-c4nc(N[C@@H]5CC[C@@H](C)NC5)ncc4C(F)(F)F)c[nH]c3n2)n1 [Compound 159] = < 30 nM
• Cc1nocc1-c1ccc2c(-c3nc(N[C@H]4CCC(C)(C)NC4)ncc3C(F)(F)F)n[nH]c2n1 [Compound 160] = < 30 nM

For the next question, use this compound.
Query: Entry under review: CO[C@@H]1CCNC[C@H]1Nc1ncc(C(F)(F)F)c(-c2c[nH]c3cc(-c4c(C)noc4C)ccc23)n1 (single isomer, unassigned) [Compound 127] . Reported IC50?
Reply: < 30 nM

###

- Measurement target: CDK12 (aa686-1082)/Cyclin K complex (Homo sapiens)
- Sequence (Q9NYV4 686-1082): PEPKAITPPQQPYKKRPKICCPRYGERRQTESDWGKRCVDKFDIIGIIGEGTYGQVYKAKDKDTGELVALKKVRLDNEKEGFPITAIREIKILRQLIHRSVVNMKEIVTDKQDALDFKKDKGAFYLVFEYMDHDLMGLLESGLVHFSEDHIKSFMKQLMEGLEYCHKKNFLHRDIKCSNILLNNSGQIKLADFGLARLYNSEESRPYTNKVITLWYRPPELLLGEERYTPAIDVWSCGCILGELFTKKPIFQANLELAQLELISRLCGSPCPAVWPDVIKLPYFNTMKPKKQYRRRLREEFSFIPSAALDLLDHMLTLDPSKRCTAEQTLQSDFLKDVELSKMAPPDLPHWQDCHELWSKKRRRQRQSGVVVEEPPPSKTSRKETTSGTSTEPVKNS
- Sequence (O75909 whole entry partner, the tested form may be a part): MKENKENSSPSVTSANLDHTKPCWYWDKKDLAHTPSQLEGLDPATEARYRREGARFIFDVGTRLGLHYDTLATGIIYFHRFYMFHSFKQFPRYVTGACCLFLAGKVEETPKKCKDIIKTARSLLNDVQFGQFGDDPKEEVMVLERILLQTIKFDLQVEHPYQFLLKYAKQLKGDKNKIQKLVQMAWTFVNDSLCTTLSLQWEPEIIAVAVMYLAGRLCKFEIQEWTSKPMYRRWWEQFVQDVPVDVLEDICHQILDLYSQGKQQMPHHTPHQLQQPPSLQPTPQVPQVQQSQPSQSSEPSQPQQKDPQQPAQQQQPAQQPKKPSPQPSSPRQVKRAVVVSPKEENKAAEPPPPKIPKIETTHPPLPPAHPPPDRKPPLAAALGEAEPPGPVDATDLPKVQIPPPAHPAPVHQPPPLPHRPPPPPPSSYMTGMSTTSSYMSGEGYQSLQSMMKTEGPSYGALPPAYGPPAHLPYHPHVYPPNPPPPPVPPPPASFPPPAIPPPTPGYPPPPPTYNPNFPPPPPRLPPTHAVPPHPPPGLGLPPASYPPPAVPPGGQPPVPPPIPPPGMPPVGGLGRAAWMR
- Measurement protocol: CDK12 kinase inhibition assay (Caliper/LabChip EZ Reader)
Catalogue of compounds with associated IC50

- Cc1noc(C)c1-c1ccc2c(-c3nc(N[C@@H]4CNC[C@H](C(=O)N(C)C)C4)ncc3C(F)(F)F)c[nH]c2c1 [Compound 112]: > 500 nM
- Cc1noc(C)c1-c1ccc2c(-c3nc(N[C@H]4CC[C@H](C)NC4)ncc3C(F)(F)F)c[nH]c2n1 [Compound 124]: > 500 nM
- Cc1ncoc1-c1ccc2c(-c3nc(N[C@H]4CCCNC4)ncc3C(F)(F)F)c[nH]c2n1 [Compound 161]: > 500 nM
- CC1(C)CNC[C@@H](Nc2ncc(C(F)(F)F)c(-c3c[nH]c4cc(-c5nccs5)ccc34)n2)C1 [Compound 109]: > 500 nM
- Cc1nc(-c2ccc3c(-c4nc(N[C@H]5CCCNC5)ncc4C(F)(F)F)n[nH]c3n2)no1 [Compound 168]: > 500 nM
- CNC(=O)[C@H]1CNC[C@@H](Nc2ncc(C(F)(F)F)c(-c3c[nH]c4nc(-c5c(C)noc5C)ccc34)n2)C1 [Compound 120]: > 500 nM

Query: Can you share its IC50? I mean this compound: Cc1noc(C)c1-c1ccc2c(-c3nc(N[C@@H]4CNC[C@H](C(=O)N(C)C)C4)ncc3C(F)(F)F)c[nH]c2n1 [Compound 119]
Reply: > 500 nM

Query: Could you do the same for Cc1noc(C)c1-c1ccc2c(-c3nc(N[C@H]4CCC(C)(C)NC4)ncc3C(F)(F)F)c[nH]c2n1 [Compound 116] , please?
Reply: > 500 nM

Query: Entry to check: CO[C@H]1CNC[C@@H](Nc2ncc(C(F)(F)F)c(-c3c[nH]c4cc(-c5c(C)noc5C)ccc34)n2)C1 [Compound 131]
Reply: > 500 nM

Query: Could you do the same for Cn1nnnc1-c1ccc2c(-c3nc(N[C@H]4CCCNC4)ncc3C(F)(F)F)c[nH]c2c1 [Compound 122] , please?
Reply: > 500 nM

Query: Could you do the same for CNC(=O)[C@H]1CNC[C@@H](Nc2ncc(C(F)(F)F)c(-c3c[nH]c4nc(-c5nccs5)ccc34)n2)C1 [Compound 145] , please?
Reply: > 500 nM

Query: Same again, this time with FC(F)(F)c1cnc(N[C@H]2CCCNC2)nc1-c1c[nH]c2cc(-c3cnco3)ccc12 [Compound 111]
Reply: > 500 nM

Query: How about this compound: Cc1nscc1-c1ccc2c(-c3nc(N[C@H]4CCCNC4)ncc3C(F)(F)F)c[nH]c2c1 [Compound 128]
Reply: > 500 nM

Query: Input Cc1noc(C)c1-c1ccc2c(-c3nc(N[C@@H]4CNC[C@H](O)C4)ncc3C(F)(F)F)n[nH]c2n1 [Compound 146]
Reply: > 500 nM

Reference source for all entries: patent US11311542B2
